These entries and their values trace back to patent US20080161232A1.

# target: human C5aR(CD88) (Homo sapiens)
# Construct: expressed in transfected cells; host or cells: rat basophilic leukemia cells (RBL)
# Sequence (P21730 whole entry): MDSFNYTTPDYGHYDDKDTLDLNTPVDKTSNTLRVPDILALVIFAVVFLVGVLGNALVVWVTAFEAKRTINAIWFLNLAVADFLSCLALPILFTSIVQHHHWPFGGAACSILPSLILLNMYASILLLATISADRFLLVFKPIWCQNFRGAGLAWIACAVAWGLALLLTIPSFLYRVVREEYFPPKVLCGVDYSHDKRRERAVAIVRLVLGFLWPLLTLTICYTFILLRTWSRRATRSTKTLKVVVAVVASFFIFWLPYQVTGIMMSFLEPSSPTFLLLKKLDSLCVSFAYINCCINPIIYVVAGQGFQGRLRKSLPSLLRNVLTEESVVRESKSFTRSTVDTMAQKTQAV
# test-summary: Determination of the IC50 value in an enzyme release assay (functional assay, antagonistic activity)
# Type: cell-based
# assay-context: antagonistic activity; IC50 group in enzyme release assay, RBL cells expressing human C5aR(CD88); read-out: activity (group)
pIC50: −log10 of the molar value. Starred links: 1 amine or outer side, 2 acyl side, 3 side chain; linkers in the order of their positions; H or OH if unused. Non-standard residues stand in square brackets, D forms with d. Residues, ends and D or L forms follow the SMILES beside them. *: point of attachment. d(hCha) = N[C@H](CCC1CCCCC1)C(=O)O; dCha = N[C@H](CC1CCCCC1)C(=O)O; Orn = NCCC[C@H](N)C(=O)O; CO = O=C([*:1])[*:2]; NHBu = CCCCN*
Listing: pIC50 of selected compounds

{"compound": "CCCCNC(=O)N[C@@H](Cc1ccccc1)C(=O)N[C@@H](CCCN)C(=O)N1CCC[C@H]1C(=O)N[C@H](CC1CCCCC1)C(=O)N[C@@H](Cc1c[nH]c2ccccc12)C(=O)N[C@@H](Cc1ccccc1)C(N)=O [Compound 76, Bu-NH—CO-Phe-Orn-Pro-cha-Trp-Phe-NH2] ({NHBu-CO}-F[Orn]P[dCha]WF-NH2)", "target": "human C5aR(CD88) (Homo sapiens)", "pIC50": "5.70 to 6.70"}

Checklist item: pIC50 tested on human C5aR(CD88) (Homo sapiens), entry CC(=O)N[C@@H](Cc1ccccc1)C(=O)N[C@@H](CCCN)C(=O)N1CCC[C@H]1C(=O)N[C@H](CCC1CCCCC1)C(=O)N[C@@H](Cc1c[nH]c2ccccc12)C(=O)N[C@@H](Cc1ccccc1)C(=O)O [Compound 132, Ac-Phe-Orn-Pro-hch-Trp-Phe-OH] (Ac-F[Orn]P[d(hCha)]WF-OH) , value? 6.70 to 7.30
